# assayedTarget: T1, Brn2 DNA-binding domain (BD-Brn2) (Mus musculus (B6), UniProt P31360 336-435)
# T1 sequence: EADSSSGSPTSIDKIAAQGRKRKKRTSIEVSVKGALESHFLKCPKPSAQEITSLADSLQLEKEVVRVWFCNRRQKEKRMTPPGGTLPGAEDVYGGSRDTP
# protocolSummary: EMSA; 10% glycerol, 20 mM HEPES pH 7.8, 45 mM KCl, 10 mM NaCl, 1 mM EDTA, 1 mM DTT, 0.2 ug/uL BSA, 0.1% NP-40, 50 ng poly-dIdC; 20 ng each GST protein; room temperature 30 min (heterodimers 4 C); 6% PAGE 0.25x TBE
# reportedConditions: protein: recombinant; tags: GST (N-terminal, pGEX-6P-1); label: 32P-dCTP fill-in of the 5' (dG)5 overhangs of both strands (Methods; control probes are given with GGG)
quantity: binding result

Here is how some binders turned out for binding result.
>>> datavalue("96 (dsDNA) DNA 1: GGGGGACATAGACACAAATAGCAGACAATGACCTTGACCCCC DNA 2: GGGGGTCAAGGTCATTGTCTGCTATTTGTGTCTATGTCCCCC")
"no binding"
>>> datavalue("102c (dsDNA) DNA 1: GGGGGATTTGGCGATTGTATTATAATTGTCTATCAGTCCCCC DNA 2: GGGGGACTGATAGACAATTATAATACAATCGCCAAATCCCCC")
"binds"
>>> datavalue("82 (dsDNA) DNA 1: GGGGGACTATTTATTTGTGTTTTCCTATTCACTTTACATCCCCC DNA 2: GGGGGATGTAAAGTGAATAGGAAAACACAAATAAATAGTCCCCC")
"no binding"
>>> datavalue("117 (dsDNA) DNA 1: GGGGGGAAAAACAAAGATTTAGTATAAACCCCC DNA 2: GGGGGTTTATACTAAATCTTTGTTTTTCCCCCC")
"no binding"
>>> datavalue("98 (dsDNA) DNA 1: GGGGGTTATGAATACAATTCATTATAACCATGGATCCCCC DNA 2: GGGGGATCCATGGTTATAATGAATTGTATTCATAACCCCC")
"binds"

Q: Please supply the value of reported binding result for the item 6 (dsDNA) DNA 1: GGGGGAGGACTTAATTGTTCGCATTTCTGTATTCTGCCCCC DNA 2: GGGGGCAGAATACAGAAATGCGAACAATTAAGTCCTCCCCC
A: binds

Q: Please supply the value of reported binding result for the item 1 (dsDNA) DNA 1: GGGGGAAAATAACCAAAATAAAAAGTGTACAATTCAGTGGCCCCCC DNA 2: GGGGGGCCACTGAATTGTACACTTTTTATTTTGGTTATTTTCCCCC
A: no binding

Q: Please supply the value of reported binding result for the item 101 (dsDNA) DNA 1: GGGGGTGCCTCCTTTTGTGAGCTATTTATAATGCTAACCCCC DNA 2: GGGGGTTAGCATTATAAATAGCTCACAAAAGGAGGCACCCCC
A: binds

Q: Please supply the value of reported binding result for the item 87 (dsDNA) DNA 1: GGGGGTTATGACTGTTTAATAATATATATTGTGTTCTGGCCCCCC DNA 2: GGGGGGCCAGAACACAATATATATTATTAAACAGTCATAACCCCC
A: binds
